Each entry below carries its reported EC50 Neutralizing.
# Experimental System: pentameric gH complex on infectious CMV (neutralization assays) (human cytomegalovirus)
# Assay Details: cell-based or functional assay
Value Kind: EC50 Neutralizing (ng/mL)

>>> numeric_result("1-85 (antibody, V domains shown) VH: QVHLVESGGGLVKPGRSLRLSCAASGFTFSDYYMAWIRQVPGKGLEWVSFISSSGRTIYYADSVKGRFTISRDNAKDSLYLQMHSLRAEDTAVYYCARDSYSKLVDIEAIEAFDIWGRGTMVTVSS VL: SYELAQPPSVSVAPGKTATIACGGDNIGGKSVHWYLQKAGQAPVLVISYDSDRPSGIPERFSGSNSGNTATLTISRVEAGDEADYFCQVWDRHGDHVVFGGGTKLTVL")
0.9
>>> numeric_result("1-175 (antibody, V domains shown) VH: QVHLVESGGGLVKPGGSLRLSCAASGFTFSDYYMAWIRRAPGKGLEWISFISGSGRTLYHAESVKGRFTVSRDNAKDSLYLHMHSLRDADTAVYYCARDSYSKLVEIEAIEAFDVWGRGTVVTVSS VL: SYELAQPPSVSVAPGKPARIACGGDNIGGKSVHWYLQKAGQAPVLVMSYDSDRPSGIPERFSGSNSGNTATLTISRVEAGDEGDYFCQVWDRQTDHVVFGGGTKLTVL")
1
>>> numeric_result("1-125 (antibody, V domains shown) VH: QVQLVESGGGLVKPGGSLRLSCAPAGFNFKDYYMTWIRQAPGKGLEWVSFISSSGQTIYYADSVKGRFTISRDNARNSLYLQMNSLRAEDTAVYYCARDSYSKLVDIVAIEAFDLWGQGTLVSVSS VL: SYELTQPPSVSVAPGKMARITCGGDNIGSKSVHWYQQRPGQAPVLVIRFDTDRPSRIPERFSGSNSGNTATLAISRVEAGDEADYYCQVWDSSSARLVFGGGTKLTVL")
0.9
>>> numeric_result("2-25 (antibody, V domains shown) VH: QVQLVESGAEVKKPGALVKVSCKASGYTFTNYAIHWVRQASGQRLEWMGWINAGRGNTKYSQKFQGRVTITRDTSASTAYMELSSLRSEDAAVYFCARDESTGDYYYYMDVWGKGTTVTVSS VL: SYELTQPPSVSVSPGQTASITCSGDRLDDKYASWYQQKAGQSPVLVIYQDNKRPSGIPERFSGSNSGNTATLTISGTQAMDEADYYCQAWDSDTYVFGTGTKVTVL")
0.09
>>> numeric_result("3-16 (antibody, V domains shown) VH: QVQVVQSGAEVKKPGASVMVSCKTSGYRFTIYSIAWMRQAPGQGLEWMGSINTYNGNTKYAEKFQGRVTMSRDTSTSTAYMEVRSLGSADTAMYYCARDAENWGFFDDWGQGTLVTVSS VL: EIVLTQSPGTVSLSPGERVTLSCRASQSVGRHLAWYQQKPGQPPRLLIYGASTRATGVPDRFSGSGSETEFTLAISSLQSEDFALYYCQQYNTWPYTFGQGTKLEIK")
90
>>> numeric_result("1-103 (antibody, V domains shown) VH: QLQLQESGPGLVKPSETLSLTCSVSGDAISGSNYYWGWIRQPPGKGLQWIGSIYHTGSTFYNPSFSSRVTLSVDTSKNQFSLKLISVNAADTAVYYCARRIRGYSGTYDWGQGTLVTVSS VL: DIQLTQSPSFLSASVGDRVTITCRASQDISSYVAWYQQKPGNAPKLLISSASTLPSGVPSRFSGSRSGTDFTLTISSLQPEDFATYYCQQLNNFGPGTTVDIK")
4
>>> numeric_result("1-32 (antibody, V domains shown) VH: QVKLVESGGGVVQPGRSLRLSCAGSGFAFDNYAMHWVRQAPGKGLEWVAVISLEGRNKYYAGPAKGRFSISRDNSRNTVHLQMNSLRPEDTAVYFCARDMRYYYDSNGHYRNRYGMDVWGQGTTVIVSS VL: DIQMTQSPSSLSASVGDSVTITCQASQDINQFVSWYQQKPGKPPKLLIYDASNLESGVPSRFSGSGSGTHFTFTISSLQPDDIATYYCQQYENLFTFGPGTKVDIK")
20
>>> numeric_result("2-18 (antibody, V domains shown) VH: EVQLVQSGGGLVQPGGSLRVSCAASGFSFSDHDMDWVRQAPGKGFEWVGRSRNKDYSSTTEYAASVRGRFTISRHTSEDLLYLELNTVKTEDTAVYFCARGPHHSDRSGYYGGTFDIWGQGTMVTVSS VL: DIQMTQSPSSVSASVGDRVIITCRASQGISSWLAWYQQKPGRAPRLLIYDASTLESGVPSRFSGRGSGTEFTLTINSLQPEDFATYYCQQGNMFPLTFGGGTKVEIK")
0.9
>>> numeric_result("1-15 (antibody, V domains shown) VH: QVQLVASGGGLVKPGGSLRLSCAASEFTFSDYYMTWIRQAPGKGLEWVSYISSSGTTIYYADSVKGRFTVSRDNAKNSLFLQMNSLRAEDTALYYCARDSYSKLVDIEAIEAFDIWGQGTMVTVSS VL: SYELTQPPSVSVGPGRTARITCGANNIGSKSVHWYQQRPGQAPVLVISFDTDRPSGIPERFSGSNSGNTATLTISRVEAGDEADYFCQVWDRTSDHVVFGGGTKLTVL")
0.9
>>> numeric_result("3-7 (antibody, V domains shown) VH: QVQLVQSGAEVKKPGASVKVSCKTSGYTFNTYAISWVRQAPGQGLEWVGWINTYSGSTKYAQKVQGRVTMTTDTSTSTAYMELRGLRSDDTAVYYCARDGYNWGFLDFWGQGSLVTVSS VL: DIQMTQSPSSLSASVGDRVTITCRASQGISNYLAWYQQKPGKLPKLLIYAASTLQSGVPSRFSGSGSGTDFTLTISSLQPEDVASYYCQKYNSAPLTFGPGTKVDIK")
80
>>> numeric_result("1-150 (antibody, V domains shown) VH: QVQLVESGGGLVKPGGSLRLSCAASGFSFSAYYMSWIRQAPGKGLEWISYISSSGNTIYYTDSVKGRFTIARDNAKNSLYLQMNSLRAEDTGLYYCARDSYSKLADIEATEAFDVWGQGTMVAVSS VL: SYELTQPPSVSVAPGKTARITCGGNNIGSKSVHWYQQKPGQAPVMVIYYDSDRPSGIPERFSGSNSGNTATLTISRVEAGDEADYYCQVWDSGSDRVVFGGGTKLTVL")
1
